Here the recorded furin cleavage Z-score is given for each entry.
Target: furin, P09958;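 further: purified furin at 1:10 enzyme:substrate in 50 mM HEPES pH 7.5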
Sequence (P09958 whole entry): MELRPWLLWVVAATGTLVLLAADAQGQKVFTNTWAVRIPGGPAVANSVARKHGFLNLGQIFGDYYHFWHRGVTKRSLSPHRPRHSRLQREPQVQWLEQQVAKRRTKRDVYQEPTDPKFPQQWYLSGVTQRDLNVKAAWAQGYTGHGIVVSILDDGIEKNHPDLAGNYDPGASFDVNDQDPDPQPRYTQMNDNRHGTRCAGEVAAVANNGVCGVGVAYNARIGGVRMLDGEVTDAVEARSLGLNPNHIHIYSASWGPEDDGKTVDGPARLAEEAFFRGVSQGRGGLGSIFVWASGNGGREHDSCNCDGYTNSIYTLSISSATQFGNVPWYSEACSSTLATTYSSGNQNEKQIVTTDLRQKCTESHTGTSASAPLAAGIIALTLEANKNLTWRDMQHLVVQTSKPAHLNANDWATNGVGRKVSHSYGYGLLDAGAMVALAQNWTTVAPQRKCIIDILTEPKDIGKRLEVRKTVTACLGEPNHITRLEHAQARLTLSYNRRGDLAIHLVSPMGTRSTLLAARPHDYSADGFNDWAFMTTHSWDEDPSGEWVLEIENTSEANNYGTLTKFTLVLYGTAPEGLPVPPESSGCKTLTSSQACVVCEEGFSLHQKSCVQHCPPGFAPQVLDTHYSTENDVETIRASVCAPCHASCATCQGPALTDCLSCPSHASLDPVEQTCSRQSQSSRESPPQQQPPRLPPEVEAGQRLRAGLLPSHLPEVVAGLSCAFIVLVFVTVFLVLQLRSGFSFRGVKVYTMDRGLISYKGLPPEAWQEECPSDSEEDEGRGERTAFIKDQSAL
Test: furin cleavage Z-score vs untreated control; higher = more cleavage, active = 3.5 or more, inactive = 1 or less, 8 variable residues between constant flanks
Details: 30 min
The other results are listed elsewhere or left out. How many sequences the whole screen found active is unknown.
metric name: furin cleavage Z-score

> print(dat)
         macromolecule.sequence  obs.value
1    CATGRGKPGIAGNASASA [HC906]       1.63
2   CARFRRKRRHAGNASASA [FS-854]       7.32
3  CARNQRIVQLAGNASASA [FS-2435]      0.203
4    CADLYLVTRHAGNASASA [HC725]     -0.885
